System: LOX IMVI melanoma
Assay: NCI-60 one-dose screen, 48 h
Settings: 10 µM
This is part of a sample that, as a whole, favours compounds with a hit. Of some 83,000 tested, about 20% had one in any assay. Activity calls are given as the source filed them. Rule for the calls: active = growth percent below 10; inactive = the rest.
Lab note: assign the record to one of active, inactive

Lab log entry: COc1ccc(-c2nn(-c3cccc(NC(=O)c4cccc(C(F)(F)F)c4)c3)cc2-c2ccncc2)cc1Cl — outcome as called in the assay?
inactive

Do the same for Fc1ccc2nc(-c3nc(-c4ccccc4)n4ccccc34)[nH]c2c1 please
inactive

Do the same for Cc1ccc(NC(=O)Nc2nc3ccccc3s2)cc1NC(=O)Nc1nc2ccccc2s1 please
inactive

Do the same for O=[N+]([O-])c1ccc(N/N=C/c2cccc3ccccc23)nc1 please
inactive

Do the same for OCC1OC(n2cnc3c(N/N=C\c4ccccn4)ncnc32)C(O)C1O (stereo not drawn) please
inactive

Do the same for CC1(C)Cc2c(sc3ncn4nc(-c5ccc(O)cc5)nc4c23)CO1 please
inactive

Do the same for O=C1c2ccc3c4c(ccc(c24)C(=O)N1CCNCc1ccccc1)C(=O)N(CCNCc1ccccc1)C3=O please
active

Do the same for COc1ccc2c(c1)sc1nc(-c3ccccc3)c(-c3ccc(O)c(OC)c3)n12 please
inactive

###

Tested on: SF-539 CNS
Experiment: NCI-60 one-dose screen, 48 h (100 = growth as untreated, 0 = no growth, -100 = all killed)
Settings: 10 µM
Compounds without any hit were thinned out: in the full panel of roughly 83,000, 20% have a hit. Calls of active or inactive are those of the source. The calls were made as follows: active = growth percent below 10; inactive = the rest.
Record form. Attribute: growth. Fill in for each entry.

Which growth is listed for Nc1ccc2c(c1)C1(CCC2)NC(=O)NC1=O (stereo not drawn) ?
93% (inactive)

Do the same for CC(=O)[C@H]1CC[C@H]2[C@@H]3CCC4=CC(=O)C=C[C@]4(C)[C@H]3CC[C@]12C please
87.9% (inactive)

Do the same for CCN(CC)CCOc1nc2ccccc2c2c1-c1ccc(OC)cc1C2=O please
29.2% (inactive)

Do the same for COc1ccc2c(c1)nc(N)c1c3cccnc3cn21 please
10.2% (inactive)

Do the same for COc1ccc(/C(=C2\O[C@@H]([C@H]3COC(C)(C)O3)[C@H]3OC(C)(C)O[C@@H]23)c2cc(OC)c(OC)c(OC)c2)cc1O please
9.85% (active)

Do the same for COc1ccc(Cl)cc1C(=O)Nc1nc2ccc(Cl)cc2s1 please
86.4% (inactive)

Do the same for N#Cc1cc(-c2cc3ccccc3o2)oc1N please
-45% (active)

Do the same for Cc1cc2c(C)c3cc(C)c(N)cc3nc2cc1N please
19.4% (inactive)

Do the same for C(CCCC1=NCCO1)CCCC1=NCCO1 please
101% (inactive)

Do the same for COc1cc(/C=C/C(=O)c2ccc(Cl)cc2)ccc1OS(=O)(=O)c1ccc(C)cc1 please
111% (inactive)

Do the same for N#CSCC1CC(O)(c2ccccc2)CC(c2ccc(Cl)cc2)O1 (stereo not drawn) please
58.8% (inactive)

Do the same for CCCC#CCN(CC)CC please
99.6% (inactive)

Do the same for C#Cc1ccc(-n2c(/C=C/c3ccc(O)c(OC)c3)nc3ncccc3c2=O)cc1 please
97.2% (inactive)

Do the same for COc1cc2c(cc1OC)N(CCO)C1=C(C(=O)OC1)C2c1ccc(Cl)c(Cl)c1 (stereo not drawn) please
99.3% (inactive)

Do the same for Cc1ccc(C(=O)N2C/C(=C/c3ccc(F)cc3)C(=O)/C(=C/c3ccc(F)cc3)C2)cc1 please
93.2% (inactive)

Do the same for O=C1/C(=C\c2ccccc2)CN(C(=O)c2ccccc2)C/C1=C\c1ccccc1 please
69.4% (inactive)

Do the same for CN1CCC(CNc2cc(C3(C(=O)Nc4cc(C(=O)Nc5ccc(Cl)c(C(F)(F)F)c5)ccc4F)CC3)ncn2)CC1 please
-57.2% (active)

Do the same for CSc1cc(SC)ncn1 please
98.1% (inactive)

Do the same for COc1ccc(-c2cc(/C=C/C(=O)c3cc(OC)c(OC)c(OC)c3)[nH]n2)cc1OC please
-51.4% (active)

Do the same for CC1CC(=O)OC(C)C1 (stereo not drawn) please
98.5% (inactive)

Do the same for CCCCCCN(CCCCCC)CC(O)c1ccc2c3c(cccc13)CC2 (stereo not drawn) please
70% (inactive)

Do the same for FC(F)(F)c1ccc2nc(-c3nc(-c4ccccc4)n4ccccc34)[nH]c2c1 please
35.1% (inactive)

Do the same for C/C(=N\Nc1nc2ccccc2s1)c1ccncn1 please
40.8% (inactive)
